# tgt: KRas G12A (Homo sapiens, UniProt P01116, G12A)
# Sequence (P01116 1-169 isoform P01116-2 G12A): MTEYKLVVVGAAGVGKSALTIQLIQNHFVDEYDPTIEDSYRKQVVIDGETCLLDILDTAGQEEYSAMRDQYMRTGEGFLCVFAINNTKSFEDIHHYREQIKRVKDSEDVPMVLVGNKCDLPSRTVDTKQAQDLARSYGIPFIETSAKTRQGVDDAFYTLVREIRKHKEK
# Type: binding
# run_parameters: single point, 10 nM compound, read-out: Binding to KRas (% inhibition at 10 nM) G12A
reported_endpoint: inhibition at 0.01 µM (%)

1. CCc1c(F)ccc2cc(O)cc(N3CCc4c(nc(OC[C@@]56CCCN5C[C@H](F)C6)nc4N4CCCn5nc(C(=O)N6CC7CCC6CN7)cc5C4)C3)c12 (stereo partly shown) | 95
2. CCc1c(F)ccc2cc(O)cc(N3CCc4c(nc(OC[C@@]56CCCN5C[C@H](F)C6)nc4N4CCCn5nc(N)c(Cl)c5C4)C3)c12 | 93
3. CCc1c(F)ccc2cc(O)cc(N3CCc4c(nc(OC[C@@]56CCCN5C[C@H](F)C6)nc4N4CCCn5nc(C(=O)N(C)C(C)C)cc5C4)C3)c12 | 97
4. CCc1c(F)ccc2cc(O)cc(N3CCc4c(nc(OC[C@@]56CCCN5C[C@H](F)C6)nc4N4CCCn5nc(C(=O)OC)cc5C4)C3)c12 | 74

Cited source for all entries: patent US20250368649A1
